# target: T1, human MSLN-R2-his protein (human, UniProt Q13421 391-486)
# T1 construct: Region 2 of human mesothelin, made in HEK293E cells, His-tagged; also called human MSLN-R2 protein; hMSLN-R2-his; not shown: His tag
# T1 sequence (Q13421 other isoform, or with tags, fused parts or gaps): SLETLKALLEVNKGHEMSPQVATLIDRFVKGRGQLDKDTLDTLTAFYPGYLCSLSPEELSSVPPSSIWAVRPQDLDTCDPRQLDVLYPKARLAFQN
# runDescription: ELISA on coated MSLN-R2; antibody 0.0001 nM
Measured OD450 values are reported for all entries that follow.
// return numeric value only (unit: OD450, not printed)

# binder, quantity, numericResult
measured = [
    ("S009-F8-9.16 (antibody, human IgG1, kappa, V domains shown) VH: EVHLQQSGPVLVKPGASVKMSCKASGYTFTDYFMNWVKQSHGKSLEWIGVINPHNGYVNYNQKFQGRATLTVDKSSSTVYMELNSLTSEDSAVYHCARSAESAWFAYWGQRTLVTVSA VL: DVLMTQTPLSLPVSLGDQVSISCRSSQSIVHVKGNTYLEWYLQKPGQSPELLIYKVSNRFSGVPDRFSGGGSGTDFTLKISRVEPEDLGVYYCFQGSHLPYTFGGGTKLEIKR", "OD450", 0.04),
    ("S009-F8-22.23 (antibody, human IgG1, kappa, V domains shown) VH: QVQLKQSGPGLVQPSQSLSITCTVSGFSLFSYGVHWVRQSPGKGLEWLGVIWSGGSTDYNAAFISRLSISKDNSKSQVFFKMNSLQADDTAMYYCARNGGSMITTLYYAMDYWGQGTSVTVSS VL: DVVMTQTPLSLPVSLGDQASISCRSSQSLVHSYGNTYLHWYLQKPGQSPKLLIYKVSNRFSGVPDRFSGSGSGTDFTLKISRVEAEDLGVYFCSQSTHIPFTFGGGTKLEIKR", "OD450", 0.04),
    ("S009-F8-7.5 (antibody, human IgG1, kappa, V domains shown) VH: DVQLQESGPGLVKPSQSLSLTCSVTGYSITSGYYWNWIRQFPGNKLEWMAYIRYDGSNNYNPSLKNRISIIRDTSKNQFFLRLNSVTTEDTATYYCAKSYYGMDDWGQGISVTVSS VL: DIQMTQSPASLSASVGETVTITCRTSGDIHNYLAWYQQKQGKSPQLLVYKAKTLENGVPSRFTGSGSGTQFSLKIDSLQPEDFGTYYCQHFWTTPYTFGGGTKLEIKR", "OD450", 0.06),
]

The record that follows has no OD450 shown yet.
Recorded OD450 of S009-F8-4.5 (antibody, human IgG1, kappa, V domains shown) VH: QVQLQQPGAELVKPGASVKLSCKASGYTFTIYWMHWVKQRPGQGLEWIGMIHPNSGNTNYNEKFKSKATLTVDKSSSTAYMQLSSLTSEDSAVYYCSLIHWYFDVWGTGTTVTVSS VL: QIVLTQSPAIMSASPGEKVTMTCSASSSVSYMYWYQQKPGSSPRLLIYDTSNLASGVPVRFSGSGSGTSYSLTISRMEAEDAATYYCQQWSSYPLTFGAGTKLELKR , please.
0.05
